# TARGET_OR_TEST_SYSTEM: RNA-binding protein pos-1 (Caenorhabditis elegans, UniProt G5EF15)
# Sequence (G5EF15 whole entry, the tested form may be a part): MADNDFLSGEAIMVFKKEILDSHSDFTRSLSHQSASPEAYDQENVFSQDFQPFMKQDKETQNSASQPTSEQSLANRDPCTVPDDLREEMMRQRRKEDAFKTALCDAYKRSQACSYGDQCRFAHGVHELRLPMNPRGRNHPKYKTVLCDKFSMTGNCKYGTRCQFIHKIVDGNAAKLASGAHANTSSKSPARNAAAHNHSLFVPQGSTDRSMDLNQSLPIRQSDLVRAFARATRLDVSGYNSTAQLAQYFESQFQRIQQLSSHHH
# ASSAY_PROCEDURE: inhibitors of POS-1/mex-3 RNA binding, dose response, biochemical, fluorescence polarization (AID 1964);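 note: purified POS-1 fused to maltose binding protein made in E. coli; potency of compounds blocking POS-1 binding to fluorescent RNA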
Activity calls are given as the source filed them. Cut-off read from the data, not from the text of the source: actives have a measured EC50 and inactives only a lower limit.
PROPERTY_NAME: EC50

Cc1ccc2[nH]c3c(c2c1)CN(C(=O)CN1CCN(C(=O)c2ccco2)CC1)CC3 : 112 µM (active)
NC(=Nc1ccc(N)cc1)C(N)=Nc1ccc(N)cc1 : > 300 µM (not active)
CCCCCCCCCCCCCCCCn1cc[n+](C)c1 : > 300 µM (not active)
Clc1cccc(CSc2nc3cc[nH]cc-3n2)c1 : > 300 µM (not active)

Item under review: CC(C)(C)OC(=O)NCCCCC1=CC2=CC(=O)C(C)(OC(=O)c3ccco3)C(=O)C2=CO1 (stereo not given) . Reported EC50?
35.5 µM (active)
